# Experimental details: binders of probe aFST on microarray, primary screen, stem cell growth factor project, biochemical, small-molecule microarray, fluorescence 635/667 (AID 1086);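 also: score merges 667 nm fluorescence with signal-to-noise of each printed compound spot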
# Protocol conditions: higher = more signal
Outcome measure: composite z-score
Give bare numbers.

get_value(item= `C=CCNC(=O)[C@@H]1[C@H]2C(=O)O[C@H](c3ccccc3)[C@H](c3ccccc3)N2[C@H](c2ccc(OCCO)cc2)[C@@]12C(=O)Nc1ccc(C#CCCO)cc12` , readout=composite z-score) returns 0.804

get_value(item= `COCCOC(=O)N1C(=O)[C@@]2(c3cc(C#CC4=CCCCC4)ccc31)[C@H](C(=O)Nc1nc3ccccc3s1)[C@H]1C(=O)O[C@H](c3ccccc3)[C@H](c3ccccc3)N1[C@@H]2c1ccccc1OCCO` , readout=composite z-score) returns 0.965

Give one value of composite z-score per listed molecule.
1. CCCCC=C[C@@H](NC(=O)Oc1cccc(C(F)(F)F)c1)c1ccccc1
2. CN(C)CCCNC(=O)[C@@]1(C)c2ccccc2C(=O)N(Cc2cc(F)cc(C(F)(F)F)c2)[C@H]1c1ccc(CO)cc1
3. C=C/C=C/[C@H]1C(=C)CN([C@@H](Cc2ccccc2)C(=O)OC)[C@@H]1[C@H](O)Cc1ccccc1
4. COc1ccc([Si](C)(C)[C@H]2[C@H](CC(=O)N3CCC[C@H]3CO)O[C@@]3(C(=O)N(Cc4cccc(N5C(=O)c6cccc7cccc5c67)c4)c4ccccc43)[C@@H]2C)cc1
5. CCOC(=O)C[C@H]1[C@H](OC(=O)Cc2ccc3c(c2)OCO3)[C@@H](NC(=O)c2ccc(-c3ccccc3)cc2)c2cc(OCCCO)ccc2N1C(=O)Cc1ccc(OC)cc1

1: 2.02; 2: -0.641; 3: -0.364; 4: 0.305; 5: 0.339
